- METHOD: blockers of HIV-1 ZM109 envelope-driven cell-cell fusion – HeLa effector, CEM target cells, luciferase, cherry-pick, dose response (AID 652058);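 also: luciferase signal from HIV-1 Env mediated cell-cell fusion of effector and target cells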
- Format: functional, cell-based
Activity calls are given as the source filed them. No rule for the calls is given here.
RESULT_TYPE: AC50

I would be grateful if you could share the reported AC50 for Cc1n[nH]c2ncc(C(=O)c3ccccc3O)cc12 .
606 nM (active)

I would be grateful if you could share the reported AC50 for COc1cccc(/C=N/Nc2ncc(C(F)(F)F)cc2Cl)c1O .
1450 nM (active)

I would be grateful if you could share the reported AC50 for O=S(=O)(NCC(Nc1ccccc1)c1ccccc1)c1ccc(Cl)cc1 (stereo not given) .
2150 nM (active)

I would be grateful if you could share the reported AC50 for COc1ccc(Cl)cc1CC1(C)C(=O)Nc2ccc(S(=O)(=O)NC3CCCCC3)cc21 (stereo not given) .
768 nM (active)

I would be grateful if you could share the reported AC50 for O=C(CCc1ccc(S(=O)(=O)N2CCOCC2)cc1)Nc1nc(COc2ccccc2)cs1 .
1070 nM (active)
